All figures here come from ChEMBL document CHEMBL1201862.

# Study System: Peroxisome proliferator-activated receptor gamma/Nuclear receptor coactivator 2 (Homo sapiens, UniProt P37231);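 further: agonist potency for raising coactivator recruitment to the receptor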
# Sequence (P37231 whole entry): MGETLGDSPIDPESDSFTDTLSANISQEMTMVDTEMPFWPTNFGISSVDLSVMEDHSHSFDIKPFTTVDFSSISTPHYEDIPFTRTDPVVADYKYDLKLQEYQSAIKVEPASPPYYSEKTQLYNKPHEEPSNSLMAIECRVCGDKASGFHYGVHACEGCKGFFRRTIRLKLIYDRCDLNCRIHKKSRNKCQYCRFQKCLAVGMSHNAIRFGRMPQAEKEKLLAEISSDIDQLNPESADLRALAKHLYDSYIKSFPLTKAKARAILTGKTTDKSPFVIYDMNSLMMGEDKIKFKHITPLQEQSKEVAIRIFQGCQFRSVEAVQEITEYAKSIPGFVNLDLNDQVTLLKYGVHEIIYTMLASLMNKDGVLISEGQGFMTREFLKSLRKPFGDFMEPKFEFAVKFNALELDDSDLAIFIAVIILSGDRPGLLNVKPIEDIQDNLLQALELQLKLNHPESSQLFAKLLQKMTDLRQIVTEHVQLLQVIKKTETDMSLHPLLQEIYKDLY
# Sequence (Q15596 whole entry, further chain): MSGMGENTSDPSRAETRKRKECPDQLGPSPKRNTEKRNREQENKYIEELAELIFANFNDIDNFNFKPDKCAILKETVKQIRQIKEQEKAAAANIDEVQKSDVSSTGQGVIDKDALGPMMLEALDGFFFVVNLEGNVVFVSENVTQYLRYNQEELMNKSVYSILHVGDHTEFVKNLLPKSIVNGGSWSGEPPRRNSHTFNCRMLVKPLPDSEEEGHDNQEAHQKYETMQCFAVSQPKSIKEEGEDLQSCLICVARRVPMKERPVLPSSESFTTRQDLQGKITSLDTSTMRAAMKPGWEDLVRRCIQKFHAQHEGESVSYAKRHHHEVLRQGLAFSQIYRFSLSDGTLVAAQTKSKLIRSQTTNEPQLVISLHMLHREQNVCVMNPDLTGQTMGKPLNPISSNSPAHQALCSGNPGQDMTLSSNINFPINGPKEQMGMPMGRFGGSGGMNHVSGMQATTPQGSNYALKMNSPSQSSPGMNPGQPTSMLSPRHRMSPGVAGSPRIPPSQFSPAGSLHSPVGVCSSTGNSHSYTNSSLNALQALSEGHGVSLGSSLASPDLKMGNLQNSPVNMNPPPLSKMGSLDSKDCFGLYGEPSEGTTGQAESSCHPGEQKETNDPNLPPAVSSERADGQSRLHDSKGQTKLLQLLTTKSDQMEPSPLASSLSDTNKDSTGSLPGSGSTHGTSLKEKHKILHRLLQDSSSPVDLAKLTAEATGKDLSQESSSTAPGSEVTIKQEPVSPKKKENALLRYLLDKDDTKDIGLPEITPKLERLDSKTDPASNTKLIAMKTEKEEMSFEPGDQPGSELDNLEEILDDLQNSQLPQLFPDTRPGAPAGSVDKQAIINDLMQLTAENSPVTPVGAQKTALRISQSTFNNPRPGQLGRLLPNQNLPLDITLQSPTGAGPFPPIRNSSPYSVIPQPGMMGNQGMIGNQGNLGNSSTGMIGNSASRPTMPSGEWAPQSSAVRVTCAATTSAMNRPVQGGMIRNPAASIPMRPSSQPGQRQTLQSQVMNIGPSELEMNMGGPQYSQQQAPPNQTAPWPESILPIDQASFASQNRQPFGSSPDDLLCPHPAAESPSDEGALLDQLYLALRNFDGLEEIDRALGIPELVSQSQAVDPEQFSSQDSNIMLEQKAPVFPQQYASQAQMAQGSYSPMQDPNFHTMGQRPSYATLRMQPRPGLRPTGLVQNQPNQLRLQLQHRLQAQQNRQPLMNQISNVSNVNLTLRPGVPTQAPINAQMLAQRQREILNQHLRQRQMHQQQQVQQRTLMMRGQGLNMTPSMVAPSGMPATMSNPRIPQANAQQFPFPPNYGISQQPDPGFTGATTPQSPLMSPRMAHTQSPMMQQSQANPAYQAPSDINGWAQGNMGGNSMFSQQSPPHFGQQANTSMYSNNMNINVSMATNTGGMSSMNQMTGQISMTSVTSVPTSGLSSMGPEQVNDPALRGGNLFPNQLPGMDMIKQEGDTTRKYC
# Format: functional
Active and inactive are the calls of the source.
Each entry below lists one item and its recorded EC50 value.
Readout: EC50

| Compound | Readout | Value |
| --- | --- | --- |
| CCc1nc2ccc(C(=O)Nc3nnc(C)s3)cc2nc1CC | EC50 | > 79.4 µM (not active) |
| Cc1ccc(CSc2nc3c(cc2C#N)CCC3)cc1 | EC50 | 28.5 µM (not active) |
| Cn1cccc1-c1nc2cc(NC(=O)c3ccccc3)ccc2[nH]1 | EC50 | > 79.4 µM (not active) |
| Cn1c(SCC(=O)Nc2cccc(Br)c2)nnc1-c1cc2ccccc2o1 | EC50 | 14.5 µM (not active) |
| Cn1c(=O)c2c(ncn2CCNC2=NCCCCC2)n(C)c1=O | EC50 | > 79.4 µM (not active) |
| c1cncc(CNC2CCCC2)c1 | EC50 | > 79.4 µM (not active) |
| CC(C)C(=O)N1C2CCC1CC(O)(c1ccc(F)cc1)C2 (stereo not drawn) | EC50 | > 79.4 µM (not active) |
| O=C(COc1ccc2ccccc2c1)NNC(=O)Cc1ccccc1 | EC50 | 5.17 µM (active) |

---

# System: H9c2;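 further: cell death induced by hydrogen peroxide oxidative stress; compound pretreatment for 60 min then peroxide exposure for 2 h; potency is for protecting the cells against peroxide damage rather than for killing them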;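 further: confirmatory concentration-response retest of ultra-high-throughput screening hits for modulation of myocardial damage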
# Method: cells
# Assay type: functional, cell-based
# Condition Context: Rattus norvegicus, H9c2, Myocardium
The source made the active and inactive calls.
Classes used: yes (1) = active, no (0) = inactive

| Compound Structure | Class Label |
| --- | --- |
| CCOC(=O)c1cc2c(=O)n3ccccc3nc2n(Cc2ccco2)/c1=N/C(=O)c1cccnc1 | yes (1) |
| COc1ccc(Cl)cc1NC(=O)CN(C)C(=O)Cn1[nH]c(=O)c2ccccc2c1=O | yes (1) |
| Oc1nc(CN2CCCC2)nc2sc3c(c12)CCC3 | no (0) |
| COc1ccc(OC)c(C(=O)COC(=O)c2ccc([N+](=O)[O-])o2)c1 | no (0) |

---

# Method: Luminescence Cell-Based Dose Confirmation HTS to Identify Activators of 5'UTR Stem-Loop Driven Alpha-Synuclein mRNA Translation in H4 Neuroglioblastoma Cells. [Related pubchem assays: 1829 (Project Summary), 1814 (Primary HTS)]
# Format: functional
Activity calls are given as the source filed them.

| Compound | EC50 |
| --- | --- |
| Brc1ccc2nc(-c3cccs3)c(NCC3CCCO3)n2c1 (stereo not given) | 18.9 µM (active) |
| c1ccc(CSc2nnc(Cc3ccccc3)o2)cc1 | 14.4 µM (active) |
| Cc1cc(N=C(S)Nc2ccc(C)c(Cl)c2)[nH]n1 | 8.11 µM (active) |
| Fc1cc(Br)ccc1N=C(S)NCCc1ccccc1 | 15.9 µM (active) |
| O=C1N=C(c2ccccc2)N(c2ccccc2)C(=O)/C1=C(/O)c1ccccc1 | 19.2 µM (active) |

---

Each entry below lists one item and its recorded CC50 value.
# Method: microbe, parasite or virus in culture
# Assay type: functional
# Condition Context: Mycobacterium tuberculosis
Calls of active or inactive are those of the source.
Readout: CC50

| Compound Structure | Value |
| --- | --- |
| CSC(=N/c1cc(Cl)ccc1Cl)/C(C#N)=C(/O)c1ccco1 | 37.1 µM (active) |
| Cc1ccc(NC(=O)CSc2nc3ccccc3c(=O)n2CCCN2CCCCC2)cc1Cl | 14.4 µM (active) |
| Cc1ccccc1N1CCN(C(=O)c2ccc(Oc3ccc(C(F)(F)F)cn3)cc2)CC1 | > 40 µM (active) |
| CCCCCc1nc2c(c(=O)c3ccccc3n2C)c(=O)n1C1CCCCCC1 | 10.4 µM (active) |
| Oc1ccc(Nc2nc(-c3ccc4ccccc4c3)cs2)cc1 | 17.1 µM (active) |
| O=[N+]([O-])c1ncccc1Oc1nc(-c2cccnc2)nc2ccccc12 | > 40 µM (active) |
| O=C(NCCN1CCN(c2cccc(Cl)c2)CC1)c1ccc(CSc2nc3cc[nH]cc-3n2)cc1 | > 40 µM (active) |
